Kindly supply the reported MFI_CHO-18.2/CHO-18.1 (@30 ug/ml) values for the records listed here.
tested_target: T1, human Claudin 18.2 (CLDN18.2) (human, UniProt P56856-2 1-261)
T1 construct: whole, on cells; recombinantly expressed on CHO, HEK293, NCI-N87, NUGC4 or PANC-1 cells; also called CHO-CLDN18.2
procedure_text: FACS Exp. 2, MFI ratio CHO-18.2 over CHO-18.1

[
  {
    "binder": "reference antibody 175D10 (xi175D10) (antibody, human IgG1, kappa, V domains shown, Fc variant D356/L358; also called chimeric 175D10) VH: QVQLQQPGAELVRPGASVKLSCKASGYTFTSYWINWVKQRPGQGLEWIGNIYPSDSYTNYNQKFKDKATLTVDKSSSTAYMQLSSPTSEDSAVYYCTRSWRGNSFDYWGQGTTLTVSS VL: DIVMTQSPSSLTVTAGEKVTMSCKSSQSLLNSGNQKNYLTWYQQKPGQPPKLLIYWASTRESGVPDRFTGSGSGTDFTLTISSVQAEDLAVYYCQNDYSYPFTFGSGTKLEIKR",
    "MFI_CHO-18.2/CHO-18.1 (@30 ug/ml)": 1390
  }
]

What value of MFI_CHO-18.2/CHO-18.1 (@30 ug/ml) has been recorded for this entry: hz282-3 (antibody, V domains shown, humanized IgG; constant regions not specified) VH: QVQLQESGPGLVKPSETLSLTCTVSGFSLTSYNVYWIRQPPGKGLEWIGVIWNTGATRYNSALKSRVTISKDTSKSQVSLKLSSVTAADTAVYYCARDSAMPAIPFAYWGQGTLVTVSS VL: DIVMTQSPDSLAVSLGERATINCKSSQSLFGSVRQKNYLAWYQQKPGQPPKLLIYLASTRESGVPDRFSGSGSGTDFTLTISSLQAEDVAVYYCQQYYDIPWTFGGGTKVEIK
1670

Origin of values: patent US20210380680A1
